The measured values listed here are drawn from PubChem BioAssay (NCI).

test system: UACC-62 melanoma; assay: NCI-60 one-dose screen, 48 h; settings: 10 µM unless noted
Compounds without any hit were thinned out: in the full panel of roughly 83,000, 20% have a hit. Active and inactive are the calls of the source. How the source made its calls: active means growth percent below 10; inactive means the rest.
Possible outcomes: y (active), n (inactive)

molecule=NCCOc1ncccc1/C=C1\c2ccccc2-c2ccc(C(F)F)cc21 cat=n
molecule=COc1cc2cc(Oc3ccc(NC(=O)Nc4ccc(Cl)c(C(F)(F)F)c4)cc3)c(C)nc2cc1OCCN1CCOCC1 cat=n
molecule=COc1c(B(O)O)cc(F)cc1-c1nc2ccc3[nH]ncc3c2c2c1CCCC2 cat=n
molecule=CCCCn1c(=O)c(-c2cc(-c3ccc(Cl)cc3)nc(-c3ccc(Cl)cc3)c2)cc2cc(Cl)ccc21 cat=n
molecule=COc1cccc(-c2nc(-c3ccc(NC(=O)OC(C)C)cc3)[nH]c2-c2ccnc(Br)c2)c1 cat=y
molecule=COC(=O)/C=C1\S/C(=N\Nc2ccc([N+](=O)[O-])cc2[N+](=O)[O-])N(C2CCCCC2)C1=O cat=n
molecule=CN(C)c1ccc(/C=N\Nc2cc(=O)[nH]c3ccc(Cl)cc23)cc1 cat=n
molecule=CN1CCN(Cc2ccc(NC(=O)c3ccc(C(C)(C)C)c(C#Cc4cnc5cccnn45)c3)cc2C(F)(F)F)CC1 cat=y
molecule="COc1ccc(C2CC(c3ccc(Nc4ccnc5cc(Cl)ccc45)cc3)=NN2C=O)cc1 (stereo unspecified)" cat=n
molecule=CC(C)c1cc(C(C)C)c(S(=O)(=O)Oc2ccc(NC(=O)c3ccc(Cl)cc3)cc2)c(C(C)C)c1 cat=y
molecule=Cc1ccc(C(=O)NCCNc2nccc(-c3c(-c4cccc(F)c4)nc4sccn34)n2)cc1 cat=n

====

tested on: SNB-19 CNS; experiment: NCI-60 one-dose screen, 48 h; settings: 10 µM unless noted
The panel holds about 83,000 compounds, 20% with a hit somewhere; the sample as a whole holds those more often. The source made the active and inactive calls. Rule for the calls: active = growth percent below 10; inactive = the rest.
Possible outcomes: active, inactive

compound=Oc1ccc(Cl)cc1Cc1cc(Cl)cc(Cl)c1O target_or_test_system="SNB-19 CNS" cat=inactive
compound=N#Cc1ccc(NC(=O)c2sc3nc4c(cc3c2N)C(=O)CCC4)cc1 target_or_test_system="SNB-19 CNS" cat=inactive
compound="c1cc2nc(-c3cn[nH]c3)c3c(c2cc1-c1cn[nH]c1)C1CCC3C1 (stereo unspecified)" target_or_test_system="SNB-19 CNS" cat=inactive
compound=Cc1ccc(C(=O)N/N=C/c2cccc([N+](=O)[O-])c2)cn1 target_or_test_system="SNB-19 CNS" cat=inactive
compound=COc1ccc(C(=O)C[C@]2(O)C(=O)Nc3c(Cl)ccc(Cl)c32)cc1 target_or_test_system="SNB-19 CNS" cat=inactive
compound="Cc1ccc(C2CC(c3ccc(Nc4ccnc5cc(Cl)ccc45)cc3)=NN2C=O)cc1 (stereo unspecified)" target_or_test_system="SNB-19 CNS" cat=inactive
compound="COC1=C(C)C(=O)c2c(c(CCCl)c3n2CCC3OC(C)=O)C1=O (stereo unspecified)" target_or_test_system="SNB-19 CNS" cat=active
compound=Nc1ccccc1-c1cc2c(c3c1[nH]c1ccccc13)CCCCC2 target_or_test_system="SNB-19 CNS" cat=inactive
compound=COc1cccc(/C=C2\C=C(c3ccccc3)N(Cc3ccccc3)C2=O)c1 target_or_test_system="SNB-19 CNS" cat=inactive
compound=O=C(N/N=C/c1c(Cl)cccc1Cl)c1ccc(C(F)(F)F)nc1Nc1cccc(C(F)(F)F)c1 target_or_test_system="SNB-19 CNS" cat=inactive
compound=O=c1c2cc(F)ccc2sc2c(NCCCNCCO)nc3ccccc3c12 target_or_test_system="SNB-19 CNS" cat=inactive

====

Here, each record is paired with measured growth data.
test system: PC-3 prostate; assay: NCI-60 one-dose screen, 48 h (100 = growth as untreated, 0 = no growth, -100 = all killed); details: 10 µM unless noted
About 83,000 compounds went through this panel and 20% of them were active in at least one assay; those are over-represented in the sample as a whole.
MEASURE: growth (%)

compound=O=c1ccn(Cc2cn(-c3c4ccccc4nc4ccccc34)nn2)c(=O)[nH]1 measure=growth result=97.5
compound=CN1CCN(c2ccc(-c3cc4c(Nc5ccc(F)c(Cl)c5)ncnn4c3)cn2)CC1 measure=growth result=94.2
compound="CCc1cccc2c3c(sc12)C(c1ccc(Cl)cc1)C(C#N)=C(N)O3 (stereo unspecified)" measure=growth result=7.23
compound=NS(=O)(=O)c1ccc(-n2nc(-c3ccc(Cl)cc3)c3ccccc3c2=O)cc1 measure=growth result=75.3
compound=COc1ccc2nc(NC(=O)c3cccnc3Nc3ccc(S(N)(=O)=O)cc3)sc2c1 measure=growth result=71.6
compound=CCOC(=O)c1cn2ncnc(Oc3ccc(NC(=O)NCCN4CCN(C)CC4)c(Cl)c3)c2c1C measure=growth result=50.5
compound=O=C(O)c1cn(C2CC2)c2cc(N3CCN(C(=O)Nc4nc(-c5ccc(Cl)cc5)cs4)CC3)c(F)cc2c1=O measure=growth result=-2.99
compound=O=c1c2cc(F)ccc2sc2c(NCCN3CCOCC3)nc3ccccc3c12 measure=growth result=69
compound=NCCCNc1nc2ccccc2c2c(=O)c3cc(F)cc(Cl)c3sc12 measure=growth result=59.4
compound=COC(=O)CCC/C=C\C[C@H]1C=CC(=O)/C1=C/C[C@@H](O)CCc1cccc(C(F)(F)F)c1 measure=growth result=-39
compound=CCCCCCCCCCCCCCCCCCOc1ccc(CC(=O)OCC[N+]2(C)CCCCC2)cc1 measure=growth result=92.2

====

test system: SNB-19 CNS; assay: NCI-60 one-dose screen, 48 h (100 = growth as untreated, 0 = no growth, -100 = all killed); settings: 10 µM unless noted
About 83,000 compounds went through this panel and 20% of them were active in at least one assay; those are over-represented in the sample as a whole. Activity calls are given as the source filed them. How the source made its calls: active means growth percent below 10; inactive means the rest.
MEASURE: growth

molecule="CCN1C(=O)N(CC)C2Nn3c(s/c(=C\\c4ccc([N+](=O)[O-])cc4)c3=O)=NC21 (stereo not drawn)" target_or_test_system="SNB-19 CNS" measure=growth result="89.3% (inactive)"
molecule=O=c1[nH]c2c(ccc3cnccc32)c2c1CCC2 target_or_test_system="SNB-19 CNS" measure=growth result="3.98% (active)"
molecule=CCOc1ccc2nc(SCc3nc4n(n3)S(=O)(=O)c3ccccc3N4C)sc2c1 target_or_test_system="SNB-19 CNS" measure=growth result="30.6% (inactive)"
molecule="O=C1NC(=O)C(Cn2cnc3ccccc32)N1 (stereo not drawn)" target_or_test_system="SNB-19 CNS" measure=growth result="95.5% (inactive)"
molecule="CCOC(=O)C1=C(N)Oc2c(sc3c(C)cccc23)C1c1ccc(OC)cc1 (stereo not drawn)" target_or_test_system="SNB-19 CNS" measure=growth result="28.8% (inactive)"
molecule=S=C(c1cccs1)N1CCN(c2cccc(Cl)c2)CC1 target_or_test_system="SNB-19 CNS" measure=growth result="102% (inactive)"
molecule=CCCCNC(=O)Oc1ccc(/C(=C(\C)c2ccc(Cl)cc2)c2ccc(OCCN3CCCCC3)cc2)cc1 target_or_test_system="SNB-19 CNS" measure=growth result="93.5% (inactive)"
molecule="CC(=O)OC[C@H]1OC(Sc2sc(C(=O)c3ccc(Cl)cc3)c(N)c2-c2nc3ccccc3s2)[C@H](OC(C)=O)[C@@H](OC(C)=O)[C@@H]1OC(C)=O (stereo partly drawn)" target_or_test_system="SNB-19 CNS" measure=growth result="92.8% (inactive)"
molecule=Cc1cc(C)c(-c2c(N)cc(Br)cc2Br)c(N)c1 target_or_test_system="SNB-19 CNS" measure=growth result="63.4% (inactive)"
molecule=CCOC(=O)Cn1c(=O)c2c(c3ccccc3n2C)n2nnc(-c3ccccc3)c12 target_or_test_system="SNB-19 CNS" measure=growth result="104% (inactive)"
molecule=[O-][n+]1c2ccccc2[n+]([O-])c2c3ccccc3[nH]c21 target_or_test_system="SNB-19 CNS" measure=growth result="85% (inactive)"
molecule=CN(C)c1ccc2nc3ccc(=[N+](C)C)c([N+](=O)[O-])c-3sc2c1 target_or_test_system="SNB-19 CNS" measure=growth result="56.6% (inactive)"
molecule=COc1cccc(-c2nc(-c3ccc(NC(=O)C(C)C)cc3)[nH]c2-c2ccnc(Br)c2)c1 target_or_test_system="SNB-19 CNS" measure=growth result="44.6% (inactive)"

====

test system: HCT-116 colon; experiment: NCI-60 one-dose screen, 48 h (100 = growth as untreated, 0 = no growth, -100 = all killed); conditions: 10 µM unless noted
The panel holds about 83,000 compounds, 20% with a hit somewhere; the sample as a whole holds those more often. Active and inactive are the calls of the source. The calls were made as follows: active = growth percent below 10; inactive = the rest.
MEASURE: growth

smiles_data=CN1C(=O)CNC(=O)[C@H](NC(=O)c2nc3ccccc3cc2O)CSSC[C@H]1C(=O)NCCc1nc2ccccc2cc1O target_or_test_system="HCT-116 colon" measure=growth result="80% (inactive)"
smiles_data=COc1ccc(C(=O)/C=C/c2sc(Cl)nc2Cl)cc1 target_or_test_system="HCT-116 colon" measure=growth result="17.7% (inactive)"
smiles_data=CCc1cccc2c1S/C(=C/c1ccc(Cl)cc1)C2=O target_or_test_system="HCT-116 colon" measure=growth result="91.8% (inactive)"
smiles_data=C[N+]1=C(/C=C/c2ccc(O)c3ncccc23)C(C)(C)c2ccccc21 target_or_test_system="HCT-116 colon" measure=growth result="10.4% (inactive)"
smiles_data=O=S(=O)(NCCCNc1cc(-c2c(-c3cccc(O)c3)nc3sccn23)ccn1)c1cccc2ccccc12 target_or_test_system="HCT-116 colon" measure=growth result="33.1% (inactive)"
smiles_data=CSc1nc2ccc(C)cc2cc1/C=N/O target_or_test_system="HCT-116 colon" measure=growth result="81.1% (inactive)"
